Recorded values, source paper PMC4269301.

- assay.system: GRK5 (Homo sapiens, UniProt P34947)
- Sequence (P34947 whole entry): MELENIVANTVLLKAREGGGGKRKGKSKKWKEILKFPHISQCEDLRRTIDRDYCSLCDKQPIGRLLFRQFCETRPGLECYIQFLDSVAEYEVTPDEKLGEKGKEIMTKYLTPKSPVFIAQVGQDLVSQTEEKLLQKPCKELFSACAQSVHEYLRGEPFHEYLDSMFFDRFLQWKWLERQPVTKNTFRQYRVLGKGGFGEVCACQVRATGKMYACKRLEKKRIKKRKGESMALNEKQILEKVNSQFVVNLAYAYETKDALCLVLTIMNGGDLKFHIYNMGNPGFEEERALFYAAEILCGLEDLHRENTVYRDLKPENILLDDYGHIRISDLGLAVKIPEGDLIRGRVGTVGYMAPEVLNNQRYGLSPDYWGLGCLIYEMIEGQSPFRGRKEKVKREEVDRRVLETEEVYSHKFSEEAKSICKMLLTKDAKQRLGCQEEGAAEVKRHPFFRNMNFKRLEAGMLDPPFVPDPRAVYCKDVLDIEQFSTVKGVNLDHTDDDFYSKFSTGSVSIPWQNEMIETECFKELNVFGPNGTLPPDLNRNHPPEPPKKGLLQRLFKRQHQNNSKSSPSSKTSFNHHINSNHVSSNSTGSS
- protocol.description: GRK5 phosphorylation of light-activated rhodopsin
- Type: biochemical
- condition.parameters: 100 μM peptide; 0.5 μM light-activated rhodopsin, 100 μM ATP, 5 min
Square brackets hold non-standard residues; d marks the D form. Nle = CCCC[C@H](N)C(=O)O
We begin with a simple list: items and their reported % Inhibition (100 μM) of GRK5 phosphorylation of rhodopsin.
Write the answer as a number in %, unit excluded.

Example entries and their recorded answers appear below.
* Ac-FFDAFLQWK-NH2 [Peptide T5] | 22
* Ac-S[Nle]FFDRFLQWKWAER-NH2 [Peptide L176A] | 74
* Ac-S[Nle]FFDRFLQWK-NH2 [Peptide T4] | 72

Here is the next item to consider.
substance Ac-S[Nle]AFDRFLQWKWLER-NH2 [Peptide F166A] , % Inhibition (100 μM) of GRK5 phosphorylation of rhodopsin observed: 42

----------
- assay.system: GRK5 (Homo sapiens, UniProt P34947)
- protocol.description: GRK5 phosphorylation of light-activated rhodopsin
- Format: biochemical
Square brackets hold non-standard residues; d marks the D form. Peptide text beside a SMILES is read from it. Nle = CCCC[C@H](N)C(=O)O
property.measured: IC50 (µM)
Write the answer as a number in µM, unit excluded.

compound CCCC[C@H](NC(=O)[C@H](CO)NC(C)=O)C(=O)N[C@@H](Cc1ccccc1)C(=O)N[C@@H](Cc1ccccc1)C(=O)N[C@@H](CC(=O)O)C(=O)N[C@@H](CCCNC(=N)N)C(=O)N[C@@H](Cc1ccccc1)C(=O)N[C@@H](CC(C)C)C(=O)N[C@@H](CCC(N)=O)C(=O)N[C@@H](Cc1c[nH]c2ccccc12)C(=O)N[C@@H](CCCCN)C(=O)N[C@@H](Cc1c[nH]c2ccccc12)C(=O)N[C@@H](CC(C)C)C(N)=O [Peptide T2] (Ac-S[Nle]FFDRFLQWKWL-NH2) , IC50 observed: 5.2

----------
- assay.system: GRK5 (Homo sapiens, UniProt P34947)
- protocol.description: GRK5 phosphorylation of tubulin
- Assay type: biochemical
pIC50: −log10 of the molar value.
property.measured: pIC50

substance Ac-PIGRLLFRQFC-NH2 [α3] , pIC50 observed: ~4.52

----------
- assay.system: GRK5 (Homo sapiens)
- protocol.description: GRK5 phosphorylation of light-activated rhodopsin
- Assay type: biochemical
- condition.parameters: read-out: % Inhibition (100 μM) of GRK5 phosphorylation of rhodopsin
Square brackets hold non-standard residues; d marks the D form. Peptide text beside a SMILES is read from it. Nle = CCCC[C@H](N)C(=O)O
property.measured: inhibition at 100 µM (%)
Write the answer as a number in %, unit excluded.

• CCCC[C@H](NC(=O)[C@H](CO)NC(C)=O)C(=O)N[C@@H](Cc1ccccc1)C(=O)N[C@@H](Cc1ccccc1)C(=O)N[C@@H](CC(=O)O)C(=O)N[C@@H](CCCNC(=N)N)C(=O)N[C@@H](Cc1ccccc1)C(=O)N[C@@H](CC(C)C)C(=O)N[C@@H](CCC(N)=O)C(=O)N[C@@H](Cc1c[nH]c2ccccc12)C(=O)N[C@@H](CCCCN)C(=O)N[C@@H](Cc1c[nH]c2ccccc12)C(N)=O [Peptide T3] (Ac-S[Nle]FFDRFLQWKW-NH2) = 97

Here is the next item to consider.
molecule CCCC[C@H](NC(=O)[C@H](CO)NC(C)=O)C(=O)N[C@@H](Cc1ccccc1)C(=O)N[C@@H](Cc1ccccc1)C(=O)N[C@@H](CC(=O)O)C(=O)N[C@@H](C)C(=O)N[C@@H](Cc1ccccc1)C(=O)N[C@@H](CC(C)C)C(=O)N[C@@H](CCC(N)=O)C(=O)N[C@@H](Cc1c[nH]c2ccccc12)C(=O)N[C@@H](CCCCN)C(=O)N[C@@H](Cc1c[nH]c2ccccc12)C(=O)N[C@@H](CC(C)C)C(=O)N[C@@H](CCC(=O)O)C(=O)N[C@@H](CCCNC(=N)N)C(N)=O [Peptide R169A] (Ac-S[Nle]FFDAFLQWKWLER-NH2) , inhibition at 100 µM observed: 98
